Test: photoluminescence quantum yield (fraction); solvent given as SMILES
Details: in C1CCOC1
property.name: photoluminescence quantum yield

- smiles.data: "CN(C)c1ccc(C#Cc2ccc(C#Cc3ccc(C#Cc4ccccc4C#N)cc3C#N)cc2C#N)cc1"
  property.name: "photoluminescence quantum yield"
  experimental.result: 0.084
- smiles.data: "Cc1cc(C)n2c1C=C1c3ccccc3C(c3c[nH]c4ccccc34)=[N+]1[B-]2(F)F"
  property.name: "photoluminescence quantum yield"
  experimental.result: 0.97
- smiles.data: "COc1ccc(-c2cc3c(s2)-c2sc(-c4ccc(OC)cc4)cc2P(c2ccccc2)(c2ccccc2)=[O+][B-]3(c2c(C)cc(C)cc2C)c2c(C)cc(C)cc2C)cc1"
  property.name: "photoluminescence quantum yield"
  experimental.result: 0.52
- smiles.data: "O=Cc1ccc(C=C(c2ccccc2)c2ccccc2)cc1"
  property.name: "photoluminescence quantum yield"
  experimental.result: 0.039

* * *

Test: photoluminescence quantum yield (fraction); solvent given as SMILES
Conditions: in ClCCl
Decision: photoluminescence quantum yield compared against 0.04; not below it gives criterion met, below it gives criterion not met.

- molecule: "CCOc1ccc(/C=C/C=C/C=C/c2ccc([N+](=O)[O-])cc2)cc1"
  category.label: "criterion met"
- molecule: "COC(=O)c1ccccc1C#Cc1ccccc1NC(C)=O"
  category.label: "criterion not met"
- molecule: "CC1=C(c2ccccc2)Oc2cc3nc4ccccc4nc3c3cccc1c23"
  category.label: "criterion met"
- molecule: "CCN(CC)c1ccc2cc(/C=C(\\C#N)c3nc4ccccc4s3)c(=O)oc2c1"
  category.label: "criterion not met"
- molecule: "CC1=c2ccccc2=[N+]2C1=Cc1c3ccccc3c(-c3[nH]c4ccccc4c3C)n1[B-]2(F)F"
  category.label: "criterion met"
- molecule: "CC(C)(C)C1=CC2=C3C(=CC=C4C=CC(c5cc6c7cc(-c8ccc9ccc%10cc(C(C)(C)C)cc%11ccc8c9c%10%11)ccc7c(-c7ccc8ccc9cc(C(C)(C)C)cc%10ccc7c8c9%10)cc6c6cc(-c7ccc8ccc9cc(C(C)(C)C)cc%10ccc7c8c9%10)ccc56)=C(C=C2)C43)C1 (stereo not drawn)"
  category.label: "criterion met"
- molecule: "Cc1cccc(-c2cnc3ccc4ccccc4n23)c1"
  category.label: "criterion met"

* * *

Assay: photoluminescence quantum yield (fraction); solvent given as SMILES
Settings: in ClC(Cl)(Cl)Cl

- smiles.data: "CC1=CC(c2ccc3ccccc3c2)=[O+][B-]2(OC(=O)C(=O)O2)O1"
  photoluminescence quantum yield: 0.06
- smiles.data: "COc1ccc(/C=C/C2=CC(/C=C/c3ccc(OC)c4ccccc34)=[O+][B-](F)(F)O2)c2ccccc12"
  photoluminescence quantum yield: 0.23
- smiles.data: "c1csc(-c2cnc(-c3cccs3)c3nonc23)c1"
  photoluminescence quantum yield: 0.43
- smiles.data: "CCC1=C(C)C2=C(c3c(C)cc(C)nc3-c3cccs3)c3c(C)c(CC)c(C)n3[B-](F)(F)[N+]2=C1C"
  photoluminescence quantum yield: 0.5
- smiles.data: "CCN(CC)/C(C)=N\\c1ccc2c3c(cccc13)C(=O)c1ccccc1-2"
  photoluminescence quantum yield: 0.31
- smiles.data: "CN(C)c1ccc(/C=C2\\CC/C(=C\\c3ccc(N(C)C)cc3)C2=O)cc1"
  photoluminescence quantum yield: 0.043
- smiles.data: "O=c1oc2ccccc2cc1-c1nc2ccccc2o1"
  photoluminescence quantum yield: 0.92
